Exercise: for every item that follows, state its recorded TGI.
system: EKVX NSCLC; assay: NCI tumour cell line growth inhibition, 48 h

Problem: In one line, give reported TGI of the entry NC1CNC(=O)c2c(Cl)sc(Cl)c21 (stereo unspecified) .
Result: > 100 µM

Problem: In one line, give reported TGI of the entry O=C(O)CNS(=O)(=O)c1ccc(NCc2ccccc2)cc1 .
Result: > 100 µM

Problem: In one line, give reported TGI of the entry O=C1C2c3[nH]c4ccccc4c3C3CCCCCCC3C2C(=O)N1c1ccccc1 (stereo unspecified) .
Result: > 100 µM

Problem: In one line, give reported TGI of the entry COc1c(Br)cc(CC(N)=O)c(O)c1Br .
Result: > 100 µM

Problem: In one line, give reported TGI of the entry COc1ccc(Nc2nc3c([nH]2)c(=O)n(C)c(=O)n3C)cc1 .
Result: > 10 µM

Problem: In one line, give reported TGI of the entry CCC(C(=O)c1ccc(OC)c(OC)c1)N(C(=O)C(F)(F)F)C(C)c1ccccc1 (stereo unspecified) .
Result: > 100 µM

----------
system: U251 CNS; assay: NCI tumour cell line growth inhibition, 48 h
measurement-name: TGI

Problem: In one line, give reported TGI of the entry C=c1c(OC)c(OC)c(O)c2c1=c1cc([N+](=O)[O-])cc(OC)c1=N2 .
Result: > 100 µM

Problem: In one line, give reported TGI of the entry Cn1c([O-])nc(-n2cc[n+](C)c2)cc1=O .
Result: > 100 µM

Problem: In one line, give reported TGI of the entry Clc1ccc(OCc2nnc(CCCCCCCCc3nnc(COc4ccc(Cl)cc4)n3Nc3ccccc3)n2Nc2ccccc2)cc1 .
Result: > 87.4 µM

Problem: In one line, give reported TGI of the entry COc1ccc(/C=C/CN(C)CCc2ccccc2)cc1OC .
Result: > 100 µM

Problem: In one line, give reported TGI of the entry N#Cc1cc([N+](=O)[O-])ccc1NC(=O)C(=O)Nc1n[nH]c(N)n1 .
Result: > 100 µM

----------
tested on: NCI/ADR-RES ovarian; test: NCI tumour cell line growth inhibition, 48 h
measurement-name: TGI

Problem: In one line, give reported TGI of the entry CN(C)S(=O)(=O)Nc1nnc(S(N)(=O)=O)s1 .
Result: > 100 µM

Problem: In one line, give reported TGI of the entry COc1c(C)c2nc3ccccc3[nH]c2c2c(=O)ccnc12 .
Result: > 100 µM

Problem: In one line, give reported TGI of the entry CC(=O)OCCN1c2ccccc2Sc2cnccc21 .
Result: > 10 µM

Problem: In one line, give reported TGI of the entry COc1cc(C2NC(=O)c3ccccc3N2)ccc1OCCCCCOc1c(OC)cc(C2=NOC(c3cc(OC)c(OC)c(OC)c3)C2)cc1OC (centres undefined) .
Result: > 51.8 µM

----------
test system: SNB-75 CNS; assay: NCI tumour cell line growth inhibition, 48 h
measurement-name: TGI

Problem: In one line, give reported TGI of the entry O=C1C(Cl)N(c2ccccc2[N+](=O)[O-])C1c1c[nH]c2ccccc12 (stereo not drawn) .
Result: > 100 µM

Problem: In one line, give reported TGI of the entry C=c1c(OC)c(OC)c(O)c2c1=c1cc([N+](=O)[O-])cc(OC)c1=N2 .
Result: > 100 µM

Problem: In one line, give reported TGI of the entry Nc1ccc(S(=O)(=O)Nc2nc3ccccc3nc2N2CCCCC2)cc1 .
Result: > 100 µM

Numbers sourced from PubChem BioAssay (NCI).
